assay: NCI Yeast Anticancer Drug Screen. Data for the mec2-1 strain (AID 157)
conditions_used: S. cerevisiae mec2-1 strain, at 50.0 µM (retest, dose inferred, filed as 5.0), hits give high values
Compounds without any hit were thinned out: in the full panel of roughly 79,000, 15% have a hit.
Catalogue of molecules with associated growth inhibition
reported_property: growth inhibition (%)

1. COC(=O)c1cc(-c2c[nH]cc2C(=O)OCc2ccccc2)cn1S(=O)(=O)c1ccc(C)cc1 | 11
2. O=C(O)/C(Cl)=C(/Cl)C(=O)Nc1cccc(Cl)c1 | 100
3. COc1ccnc2c1C(=O)c1nc3ccccc3c3ccnc-2c13 | 83
4. O=C1C(=O)N(c2ccc(Cl)c(Cl)c2)C(=O)C(=O)C1c1nc2ccccc2o1 | 98
5. O=C(/C=C/c1ccc([N+](=O)[O-])o1)N1CCN(Cc2ccccc2)CC1 | 75
6. CC1C(O)Oc2cc3c(cc2C1c1ccccc1O)OCO3 (centres undefined) | 84
7. CC1(C(Cl)(Cl)Cl)C=CC(=NO)C=C1 (centres undefined) | 34
8. C/C(=N/NC(=S)Nc1ccccc1Cl)c1ccccn1 | 11
9. CN(C)c1ccc(/C=C/c2nc3ccccc3s2)cc1 | 60
10. CCCCCCCCCCSCCO | 92
11. C/C(=N\NC(=S)Nc1ccc(C(=O)O)cc1C)c1ccc2ccccc2n1 | 62
12. CC(=O)Oc1ccc(N=[N+]([O-])c2ccc(OC(C)=O)cc2)cc1 | 40
13. CSc1nc(=Nc2ccccc2)sn1-c1ccccc1 | 98
14. OC1CCN(c2c3ccccc3nc3ccccc23)CC1 | 67
15. c1ccc2c(c1)ccc1ncccc12 | 23
16. C[C@]12CC[C@H](O)CC1=CC[C@@H]1C2CC[C@]2(C)NC(=O)CCC12 (some centres undefined) | 4
17. CCCCCCCCCCCCOC(=O)CC1CC(C(C)=O)C1(C)C (centres undefined) | -7
18. CC(=O)Sc1ccccc1C(=O)NCc1ccc(Cl)cc1 | 98
19. O=[N+]([O-])c1ccc(CCCCc2ccc([N+](=O)[O-])cc2)cc1 | -18
20. CC(=O)OC1CCC2(C)C(=CCC3C2CCC2(C)C(C(C)N)CCC32)C1 (centres undefined) | 98
21. Cn1c(=S)c2[nH]c(SC3CCCCC3)nc2n(C)c1=O | 61
22. O=C1NN=C(c2ccc(Cl)cc2)CC1C1C(=O)N(c2ccccc2)N=C1c1ccccc1 (centres undefined) | 98
23. Fc1ccc(CSC(=S)Nc2ccc(F)cc2)cc1 | 16
24. CN(C)CCOc1cc2c(c3ccccc13)-c1ccccc1C2=O | 99

meta.source: PubChem BioAssay (NCI)
